Would you kindly list Binding to Hepcidin Surface (%) for each of these binders?
# experimentalTarget: T1, human hepcidin (SEQ ID NO: 9), mature, correctly folded (human, not fully specified)
# T1 construct: 25-residue mature peptide with four disulfides (C7-C23, C10-C13, C11-C19, C14-C22); Recombinant (E. coli or CHO) or synthetic, by assay; also called rhHepc; shHepc
# T1 peptide: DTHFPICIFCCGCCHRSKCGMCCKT
# methodSummary: BIAcore: 1 nM antibody over immobilized rhHepc surface, no competitor (reference)
Answers are plain numbers, in %.

Observe how each entry below is paired with its result.
binder	Binding to Hepcidin Surface (%)
murine anti-human hepcidin monoclonal antibody Ab43 (antibody, V domains shown, Mouse hybridoma monoclonal; also called mAB 43) VH: QIQLVQSGPELKKPGETVKISCKASGYTFTTYGMSWVKQAPGKGLKWMGWINTYSGVPTYADDFKGRFAFSLETSASTAYLQINNLKNEDTATYFCASLWYYGRAFDYWGQGTTLTVSS VL: NIVLTQSPASLAVSLGQRATISCRASESVDSYGNSFMHWYQQKPGQPPKLLIYLASNLESGVPARFSGSGSRTDFTLTIDPVEADDAATYYCQQNNEDRTFGGGTKLEIK	100
murine anti-human hepcidin monoclonal antibody 2.41 (antibody, V domains shown, Mouse hybridoma monoclonal) VH: QIQLVQSGPELKKPGETVKISCKASGYTFTTYGMSWVKQAPGKGLKWMGWINTSSGVPTYADDFMGRFAFSLETSASTAYLQINNLKNEDTATYFCARDRYYGEVAYWGQGTLVTVSA VL: DIVLTQSPASLAVSLGQRATISCRASESVDSFGNSFMHWYQLKPGQPPKLLIYRASNLESGIPARFSGSGSRTDFTLTINPVEADDVAIYYCQQSNEEYTFGGGTKLEIK	100

Could I get Binding to Hepcidin Surface (%) for every one of these entries?
1. rat anti-human hepcidin monoclonal antibody R9 (antibody, V domains shown, Rat hybridoma monoclonal; also called mAb R9) VH: QVTLKESGPGILQPSQTLSLTCSFSGFSLSTSGICVSWIRQPSGKGLEWLATICWEDSKGYNPSLKNRLTISKDTSNNQAFLKITSVDTADTAIYYCARPLNYGGYSELELDYWGQGVMVTVSS VL: DIQMTQSPSLLSASVGDRVTLSCKASQNIYKYLNWYQQKLGEAPKLLIYYTNSLQTGIPSRFSGSGSGTDFTLTISSLQPEDVATYYCYQYNSGPTFGAGTKLELK
2. murine anti-human hepcidin monoclonal antibody 2.7 (antibody, V domains shown, Mouse hybridoma monoclonal; Murine IgG1 was used as its isotypic control; also called Ab2.7; Ab 2.7) VH: QIQLVQSGPELKKPGETVKISCKASGYTFTTYGMSWVKQAPGKGLKWMGWINTYSGVPTYADDFKGRFAFSLETSASTAYLQINNLKNEDTATYFCGRDHYYGEVAYWGQGTLVTVSA VL: DIVLTQSPASLAVSLGQRATISCRASESVDSYGNSFMHWYQQKPGQPPKLLIYRASNLESGIPARFSGSGSRTDFTLTINPVEADDVATYYCHQSNEEYTFGGGTKLEIK

1: 100; 2: 100
